The measured values listed here are drawn from paper PMC10511116.

# STUDY TARGET: ErbB2 (HER2), recombinant (human) (UniProt P04626)
# PROTOCOL TEXT: ELONA
# MEASUREMENT SETUP: every T is Nap-dU (5-[N-(1-naphthylmethyl)carboxamide]-2'-deoxyuridine, printed P); ELONA: ErbB2-coated plate, biotin-aptamer 1 h at room temp, wash 10 mM PBS, 0.05% Tween-20, pH 7.4 (binding buffer not stated); cells: DPBS, 4.5 g/L glucose …
METRIC: Kd (nM)
Quick note: give the figure in nM, leave out the unit.

Hello, I am looking for reported Kd with ErbB2 (HER2), recombinant (human) (UniProt P04626) for ATGTTAGAGTTTGCCTGAGTGCCTCGCAAGGGCGTAACAA [ErbB2 aptamer] . Could you help?
1.37
